Test system: HS 578T breast
Experiment: NCI-60 one-dose screen, 48 h
Conditions: 10 µM unless noted
Experimental: Growth inhibition of the HS 578T human tumor cell line is measured as a screen for anti-cancer activity. Cells are grown in 96 well plates and exposed to the test compound for 48 hours. Compounds are tested at a single concentration, which is 10^-5 M for most compounds. The reported endpoint is percent growth (GI% or GIPRCNT), where numbers from 0 - 100% represent growth inhibition, and numbers from -100% - 0 represent cell death. For example, a value of 40 represents 60% growth inhibition. […]
Compounds without any hit were thinned out: in the full panel of roughly 83,000, 20% have a hit. Calls of active or inactive are those of the source. Rule for the calls: active = growth percent below 10; inactive = the rest.
Lab note: assign the record to one of active, inactive

Record excerpt, results attached:
COMPOUND	CAT
CSc1ccccc1NP1(=O)OCC(C)([N+](=O)[O-])CO1 (stereo not given)	inactive
O=C(N/N=C/c1ccc([N+](=O)[O-])o1)c1cc([N+](=O)[O-])cc([N+](=O)[O-])c1O	inactive
CC(=O)O[C@H]1CCC2C3CCC4=C/C(=N/O)CCC4(C)C3CCC21C (stereo not given in full)	inactive
O=[N+]([O-])c1ccc(F)c([N+](=O)[O-])c1F	inactive

Req: Hi, do you know how CC(=O)O[C@@H]1C2=C(C)C3(CC3)[C@@](C)(O)C(=O)C2=C[C@@]1(C)CO came out in this test?
Resp: active

---

Tested on: T-47D breast
Test: NCI-60 one-dose screen, 48 h (100 = growth as untreated, 0 = no growth, -100 = all killed)
Details: 10 µM unless noted
The panel holds about 83,000 compounds, 20% with a hit somewhere; the sample as a whole holds those more often.
MEASURED PARAMETER: growth (%)
Respond numerically; units are % and should not be typed.

COMPOUND	TEST SYSTEM	MEASURED PARAMETER	RESULT NUMBER
O=S(=O)(O)c1ccc(-c2ccc([As](=O)(O)O)cc2)cc1	T-47D breast	growth	89.5
CNC(=O)O/N=C(/C)c1ccc(Cl)cc1	T-47D breast	growth	91.8
NC(Cc1ccc2c(c1)OCO2)c1ccc2c(c1)OCO2 (centres undefined)	T-47D breast	growth	113

Req: Query growth on T-47D breast for COc1cc(C2CC(=O)Nc3nc(N)[se]c32)c(OC)c2c1OCO2 (centres undefined)
Resp: 89

Req: Query growth on T-47D breast for CNC(=O)Oc1cc(C(C)C)ccc1Sc1ccc(C(C)C)cc1OC(=O)NC
Resp: 77.7

Req: Query growth on T-47D breast for C=CC(O)CN1CC1CC (centres undefined)
Resp: 101

Req: Query growth on T-47D breast for COc1cc(NCCCCCN=C(N)N)c2ncccc2c1
Resp: 11.8

Req: Query growth on T-47D breast for O=C1C=CC(=O)C2C1C1(Cl)C(Cl)=C(Cl)C2(Cl)C1(Cl)Cl (centres undefined)
Resp: 28

Req: Query growth on T-47D breast for COc1ccc(/C=C\c2cc(OC)c(OC)c(OC)c2)cc1N/C=C\C(=O)c1c[nH]c2ccccc12
Resp: 81.7

Req: Query growth on T-47D breast for O=C1NC(=O)C(O)(C2(O)C(=O)NC(=O)NC2=O)C(=O)N1
Resp: 101

Req: Query growth on T-47D breast for c1ccc(CCN2CCCCC2Cc2ccccc2)cc1 (centres undefined)
Resp: 86.2

Req: Query growth on T-47D breast for COc1cc(N(CCCl)CCCl)ccc1C=Nc1ccccc1C(=O)O
Resp: 97.6

Req: Query growth on T-47D breast for CC(/C=N/N=C(N)N)=N\N=C(N)N
Resp: 40.8
